Target: T1, cynomolgus IL-17RA expressed on cells (cynomolgus)
T1 construct: whole, on cells; CHO cell line over-expressing cynomolgus IL-17RA (FACS); also called cyno IL-17RA; CHO-cynoIL-17RA
Test: FACS; inhibition of biotin-huIL-17A binding; MFI
testReadout: MFI
Hey, just send me the number, nothing else.

[
  {
    "binder": "IL-17RA mAb (AMH1/AML1) (antibody, V domains shown, also called AM-1; AML1/AMH1) VH: QVQLQESGPGLVKPSETLSLTCTVSGGSISNYYWNWIRQSPGKGLEWIGDIYYSGSTNYNPSLKSRVTISVDTSKNQFSLKLSSVTTADTAVYYCARDGELANYYGSGSYQFYYYYGMDVWGQGTTVTVSS VL: DILMTQSPSSLSASVGDRVTITCRASQGIRNDLGWYQQKPGKAPKRLIYAASSLQSGVPSRFSGSGSGTEFTLTISSLQPEDFATYYCLQHNSNPFTFGPGTKVDIK",
    "recordedResult": 11
  }
]

Challenge: Entry IL-17RA human mAb (AMH22/AML22) (antibody, IgG2, V domains shown, Fully human, from IgG2 XenoMouse mice; also called AM-22; AML22/AMH22) VH: QVQLVQSGAEVKKPGASVKVSCKASGYTFTRYGISWVRQAPGQGLEWMGWISAYSGNTNYAQKLQGRVTMTTDTSTSTAYMELRSLRSDDTAVYYCARRQLYFDYWGQGTLVTVSS VL: EIVMTQSPATLSVSPGERVTLSCRASQSVSSNLAWFQQKPGQAPRPLIYDASTRAAGIPARFSGSGSGTDFTLTISSLQSEDFAVYYCQQYDNWPLTFGGGTKVEIK : reported MFI = ?
Response given: 18

Challenge: For the binder shown here, IL-17RA mAb (AMH11/AML11) (antibody, V domains shown, also called AM-11; AML11/AMH11) VH: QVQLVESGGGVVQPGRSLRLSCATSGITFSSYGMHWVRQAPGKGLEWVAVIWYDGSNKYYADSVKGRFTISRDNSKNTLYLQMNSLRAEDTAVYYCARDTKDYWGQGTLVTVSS VL: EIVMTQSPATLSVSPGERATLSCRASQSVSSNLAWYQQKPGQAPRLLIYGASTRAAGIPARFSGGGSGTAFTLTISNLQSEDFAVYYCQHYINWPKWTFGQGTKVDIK , give the reported MFI.
Response given: 9

Challenge: May I ask what MFI has been recorded for IL-17RA mAb (AMH5/AML5) (antibody, V domains shown, also called AM-5; AML5/AMH5) VH: QVQLQESGPGLVKPSETLPLTCTVSGGSIRSYYWSWIRQPAGKGLEWIGRIYRSGNTIYNPSLKSRVTMSIDTSKNQFSLTLSSVTAADTAVYYCARENYSESSGLYYYYGMDVWGQGTTVTVSS VL: DIQMTQSPSSLSASVGDRVTITCRASQGIRNDLGWYQQKPGKAPKRLIYAASSFQSGVPSRFSGSGSGTGFTLTISSLQPEDFATYYCLQHNSYPPTFGQGTKVEIK ?
Response given: 9

Taken from patent US20110081339A1.
